# measuredOn: T1, human LAP-TGFB1 Fc fusion (human)
# T1 construct: also called human LAP-TGFβ1-Fc; human LAP-TGFβ-Fc isoform 1
# assayName: SPR, antigen-Fc captured, Fab analyte
reportedProperty: pKd
Expect pKd as a plain number equal to -log10 of the molar concentration.

binder	measuredResult
60BJN (Fab, V domains shown, also called VH W33D I58E W99Y / VL T30Y (60BJN)) VH: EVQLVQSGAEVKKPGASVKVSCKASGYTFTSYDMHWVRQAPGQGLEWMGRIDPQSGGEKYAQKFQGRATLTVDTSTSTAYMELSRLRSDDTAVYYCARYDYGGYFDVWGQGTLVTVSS VL: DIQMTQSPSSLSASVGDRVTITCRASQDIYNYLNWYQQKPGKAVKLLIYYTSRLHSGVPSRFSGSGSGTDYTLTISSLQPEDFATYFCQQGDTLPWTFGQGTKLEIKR	8.59
79BJN (Fab, V domains shown, also called VH W33D S55D S57D I58V / VL T30Y R53G T93E (79BJN)) VH: EVQLVQSGAEVKKPGASVKVSCKASGYTFTSYDMHWVRQAPGQGLEWMGRIDPQDGDVKYAQKFQGRATLTVDTSTSTAYMELSRLRSDDTAVYYCARWDYGGYFDVWGQGTLVTVSS VL: DIQMTQSPSSLSASVGDRVTITCRASQDIYNYLNWYQQKPGKAVKLLIYYTSGLHSGVPSRFSGSGSGTDYTLTISSLQPEDFATYFCQQGDELPWTFGQGTKLEIKR	10.66

Consider the additional binder presented here.
### Prompt Give the measured pKd of 65BJN (Fab, V domains shown, also called VH W33D M34L W99Y Y101Q / VL T30Y N31Y (65BJN)) VH: EVQLVQSGAEVKKPGASVKVSCKASGYTFTSYDLHWVRQAPGQGLEWMGRIDPQSGGIKYAQKFQGRATLTVDTSTSTAYMELSRLRSDDTAVYYCARYDQGGYFDVWGQGTLVTVSS VL: DIQMTQSPSSLSASVGDRVTITCRASQDIYYYLNWYQQKPGKAVKLLIYYTSRLHSGVPSRFSGSGSGTDYTLTISSLQPEDFATYFCQQGDTLPWTFGQGTKLEIKR .
### Response 8.09
